# measurement.notes: recombinant barcode read abundance after kanamycin selection (control-corrected) (log10(CPM+1)); higher = more efficient recombination; sequences stand for … in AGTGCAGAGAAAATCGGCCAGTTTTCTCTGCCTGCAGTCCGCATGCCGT…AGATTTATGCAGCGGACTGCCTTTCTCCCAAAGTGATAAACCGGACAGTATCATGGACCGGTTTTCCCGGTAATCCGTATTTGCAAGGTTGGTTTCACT; site = the 11-nt target;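 also: IS621 recombinase and bridge RNA in Escherichia coli cells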
# recombinant barcode read abundance (log10) per record follows
# output: bare number, no unit

In the examples that follow, each entry is paired with its recorded recombinant barcode read abundance (log10).
Give the measured recombinant barcode read abundance (log10) for ATAGGGTCTTGGGTTCTAACCTGTTGCCT (site ACAGGGTCTAG)
1.85

Give the measured recombinant barcode read abundance (log10) for ATAGGTCCTTGGGTTCTAACCTGTTGCCT (site ATAGGTCCTAG)
1.58

Give the measured recombinant barcode read abundance (log10) for AATCGGCCTTGGGTTCTAACCTGTTGCGT (site AATCGGCCTAC)
1.85

Further cases:
Give the measured recombinant barcode read abundance (log10) for CAAAGATCTTGGGTTCTAACCTGTTGCTT (site CAGAGATCTAA)
0.0421

Give the measured recombinant barcode read abundance (log10) for ACCTACCCTTGGGTTCTAACCTGTTGCCT (site ACCTACCCTAG)
1.14

----------
# measurement.notes: recombinant barcode read abundance after kanamycin selection (control-corrected) (log10(CPM+1)); higher = more efficient recombination; sequences stand for … in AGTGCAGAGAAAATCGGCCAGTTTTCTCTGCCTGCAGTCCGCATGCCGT…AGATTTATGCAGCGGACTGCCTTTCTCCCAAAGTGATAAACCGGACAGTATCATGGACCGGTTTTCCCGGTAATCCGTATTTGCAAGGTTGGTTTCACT; site = the 11-nt target
endpoint.name: recombinant barcode read abundance (log10)
# output: bare number, no unit

Give the measured recombinant barcode read abundance (log10) for CTTGGGCCTTGGGTTCTAACCTGTTGCGG (site CTTGGGCCTCC)
2.67

Give the measured recombinant barcode read abundance (log10) for TACGCTCCTTGGGTTCTAACCTGTTGCAT (site TACGCTCCTAC)
0.0178

Give the measured recombinant barcode read abundance (log10) for CTAGACTCTTGGGTTCTAACCTGTTGCTG (site CTAGACTCTCA)
2.73

Further cases:
Give the measured recombinant barcode read abundance (log10) for GCAAGGGCTTGGGTTCTAACCTGTTGCCG (site GCTAGGGCTCT)
0.303

Give the measured recombinant barcode read abundance (log10) for TTCTAGACTTGGGTTCTAACCTGTTGCGG (site TTCTAGACTCC)
1.94

Give the measured recombinant barcode read abundance (log10) for AGGAGTACTTGGGTTCTAACCTGTTGCTT (site AGGAGTACTAA)
0.761

Give the measured recombinant barcode read abundance (log10) for CACAATCCTTGGGTTCTAACCTGTTGCGT (site CACAATCCTAC)
1.76

----------
# measurement.notes: recombinant barcode read abundance after kanamycin selection (control-corrected) (log10(CPM+1)); higher = more efficient recombination; sequences stand for … in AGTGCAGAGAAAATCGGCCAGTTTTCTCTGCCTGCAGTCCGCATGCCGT…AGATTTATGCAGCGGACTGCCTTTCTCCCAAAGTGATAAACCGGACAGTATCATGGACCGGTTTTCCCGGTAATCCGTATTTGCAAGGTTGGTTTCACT; site = the 11-nt target
endpoint.name: recombinant barcode read abundance (log10)
# output: bare number, no unit

Give the measured recombinant barcode read abundance (log10) for CTACAATCTTGGGTTCTAACCTGTTGCTT (site CTACAATCTAA)
1.17

Give the measured recombinant barcode read abundance (log10) for GCTTGAGCTTGGGTTCTAACCTGTTGCCT (site GCATGAGCTAG)
0.421

Give the measured recombinant barcode read abundance (log10) for AGTTTAACTTGGGTTCTAACCTGTTGCAC (site GTCGGTCCTCG)
0.258

Further cases:
Give the measured recombinant barcode read abundance (log10) for TAGCTGACTTGGGTTCTAACCTGTTGCCT (site TAGCCGACTAG)
0.624

Give the measured recombinant barcode read abundance (log10) for GAGTCTACTTGGGTTCTAACCTGTTGCCA (site GAGTCTACTTG)
0.317

Give the measured recombinant barcode read abundance (log10) for GTATGAGCTTGGGTTCTAACCTGTTGCCT (site GTATGACCTAG)
0.0478

Give the measured recombinant barcode read abundance (log10) for GGGTCCACTTGGGTTCTAACCTGTTGCGT (site GGGTCCACTAA)
0.239

Give the measured recombinant barcode read abundance (log10) for TAGCGTACTTGGGTTCTAACCTGTTGCGG (site TAGCGTACTAC)
0.107

Give the measured recombinant barcode read abundance (log10) for CTACAATCTTGGGTTCTAACCTGTTGCAT (site CTACAATCTAA)
0.192

Give the measured recombinant barcode read abundance (log10) for ACTAAGTCTTGGGTTCTAACCTGTTGCCT (site ACTAAGTCTAG)
0.53
